Target: T1, human neonatal Fc receptor (hFcRn) (human, UniProt P55899 24-290; P61769 21-119)
T1 construct: Biotinylated in the ELISA, Octet and yeast assays; also called human FcRn; huFcRn
T1 sequence (P55899 24-290 limits assumed, chain 1 of 2): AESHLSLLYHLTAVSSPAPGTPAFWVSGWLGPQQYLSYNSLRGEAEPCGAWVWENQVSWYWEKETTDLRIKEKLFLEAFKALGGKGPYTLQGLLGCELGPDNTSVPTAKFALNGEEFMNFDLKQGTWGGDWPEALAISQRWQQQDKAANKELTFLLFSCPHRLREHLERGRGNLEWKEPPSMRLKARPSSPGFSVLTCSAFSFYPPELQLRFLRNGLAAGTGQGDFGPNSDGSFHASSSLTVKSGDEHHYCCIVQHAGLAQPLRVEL
T1 sequence (P61769 21-119 limits assumed, chain 2 of 2): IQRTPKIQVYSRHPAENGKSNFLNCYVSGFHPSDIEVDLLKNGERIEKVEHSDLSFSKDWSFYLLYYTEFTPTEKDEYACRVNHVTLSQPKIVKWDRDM
Assay: phage ELISA pH 6;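 note: higher score means stronger binding and above about 3 to 5 exceeds background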
// returns condition not met unless ELISA score is strictly below 40, in which case condition met

binder: L5 isolate with insertion SEQ ID NO: 431 (other) EPKSCDKTHTCPPCPAPELLGGPSVFLFPPKPKDTLMISRTPEVTCVVVDVSHEDPEVKFNWYVDGVEVHNAKTKPREEQYNSTYRVVSVLTVLHQDWLNGKEYKCKVSNKALPAPIEKTISKAKGQPREPQVYTLPPSRDELTKNQVSLTCLVKGFYPSDIAVEWESNGGCNEPKYVCGGGQPENNYKTTPPVLDSDGSFFLYSKLTVDKSRWQQGNVFSCSVMHEALHNHYTQKSLSLSPGK
qualitativeLabel: condition not met
//
binder: L6A isolate with insertion SEQ ID NO: 467 (other) EPKSCDKTHTCPPCPAPELLGGPSVFLFPPKPKDTLMISRTPEVTCVVVDVSHEDPEVKFNWYVDGVEVHNAKTKPREEQYNSTYRVVSVLTVLHQDWLNGKEYKCKVSNKALPAPIEKTISKAKGQPREPQVYTLPPSRDELGGCERHFPALFCGGTKNQVSLTCLVKGFYPSDIAVEWESNGQPENNYKTTPPVLDSDGSFFLYSKLTVDKSRWQQGNVFSCSVMHEALHNHYTQKSLSLSPGK
qualitativeLabel: condition not met
//
binder: L5 isolate with insertion SEQ ID NO: 447 (other) EPKSCDKTHTCPPCPAPELLGGPSVFLFPPKPKDTLMISRTPEVTCVVVDVSHEDPEVKFNWYVDGVEVHNAKTKPREEQYNSTYRVVSVLTVLHQDWLNGKEYKCKVSNKALPAPIEKTISKAKGQPREPQVYTLPPSRDELTKNQVSLTCLVKGFYPSDIAVEWESNGGCMFETKWCGGGQPENNYKTTPPVLDSDGSFFLYSKLTVDKSRWQQGNVFSCSVMHEALHNHYTQKSLSLSPGK
qualitativeLabel: condition not met
//
binder: L5 isolate with insertion SEQ ID NO: 491 (other) EPKSCDKTHTCPPCPAPELLGGPSVFLFPPKPKDTLMISRTPEVTCVVVDVSHEDPEVKFNWYVDGVEVHNAKTKPREEQYNSTYRVVSVLTVLHQDWLNGKEYKCKVSNKALPAPIEKTISKAKGQPREPQVYTLPPSRDELTKNQVSLTCLVKGFYPSDIAVEWESNGGSQRAPASCGGGQPENNYKTTPPVLDSDGSFFLYSKLTVDKSRWQQGNVFSCSVMHEALHNHYTQKSLSLSPGK
qualitativeLabel: condition met
//
binder: L5 isolate with insertion SEQ ID NO: 398 (other) EPKSCDKTHTCPPCPAPELLGGPSVFLFPPKPKDTLMISRTPEVTCVVVDVSHEDPEVKFNWYVDGVEVHNAKTKPREEQYNSTYRVVSVLTVLHQDWLNGKEYKCKVSNKALPAPIEKTISKAKGQPREPQVYTLPPSRDELTKNQVSLTCLVKGFYPSDIAVEWESNGGCQLGSMHCGGGQPENNYKTTPPVLDSDGSFFLYSKLTVDKSRWQQGNVFSCSVMHEALHNHYTQKSLSLSPGK
qualitativeLabel: condition not met
